- Tested on: Schistosoma mansoni schistosomula (Liberian)
- TEST DESCRIPTION: drug effect (1 - score/DMSO control score) (fraction); higher = more antischistosomal effect, active = 0.5 or more; extreme values may be limits of the assay
- ASSAY CONDITIONS: 72 h; 10 µM
Provide the reported drug effect of each item.
Could you keep your reply to the number by itself?

Exercise: Look up drug effect: "COC(=O)c1cccc2oc(-c3cccc(OC)c3NC(=O)c3cc(-c4ccccc4)on3)nc12"
Solution: 0.312

Exercise: Look up drug effect: "CS(=O)(=O)N1CCC(CCn2nc(Cc3cccc4ccccc34)c3c(N)ncnc32)CC1"
Solution: 0.509

Exercise: Look up drug effect: Cc1[nH]c2ccccc2c1C(c1cccs1)N1CCN(C)CC1 (centres undefined)
Solution: 1

Exercise: Look up drug effect: "Cc1ccccc1CN1CCC(O)(c2ccc(Cl)c(C(F)(F)F)c2)CC1"
Solution: 0.188

---

- System: Schistosoma mansoni schistosomula (Liberian)
- TEST DESCRIPTION: drug effect (1 - score/DMSO control score) (fraction); higher = more antischistosomal effect, active = 0.5 or more; extreme values may be limits of the assay
- ASSAY CONDITIONS: 24 h; 10 µM
Provide the reported drug effect of each item.

Exercise: Look up drug effect: "CCCCS(=O)(=O)Nc1ccc2cnn(C)c2c1"
Solution: 0.0811 (inactive)

Exercise: Look up drug effect: "CCN(CC)CCCN1CCN(C(=O)c2cccc(-c3noc(C(F)(F)F)n3)c2)CC1"
Solution: 0.2 (inactive)

Exercise: Look up drug effect: "COc1ccc(-c2nnc3ccc(-c4cccc(C(C)C)c4)cn23)cc1OC"
Solution: 0.1 (inactive)

Exercise: Look up drug effect: "Cc1cc(NC(=O)c2ccc(S(=O)(=O)N(Cc3ccccc3)C(C)C)cc2)no1"
Solution: 0.135 (inactive)

Exercise: Look up drug effect: "CCOc1ccc(-c2nc(CNCCc3ccc(F)cc3)cs2)cc1"
Solution: 0.273 (inactive)

Exercise: Look up drug effect: "Cc1ccc(-c2nc(CN(Cc3ccccn3)C(C)C)cs2)o1"
Solution: 0.05 (inactive)

Exercise: Look up drug effect: CC(C)n1ncc2c(C(=O)NCC(c3cccs3)N3CCOCC3)cc(-c3ccccc3)nc21 (stereo not drawn)
Solution: 0.273 (inactive)

Exercise: Look up drug effect: "CCOC(=O)c1cc(-c2csc(Nc3c(C)cc(C)cc3C)n2)on1"
Solution: 0.182 (inactive)

---

- Tested on: Schistosoma mansoni schistosomula (LE)
- TEST DESCRIPTION: XTT viability relative to DMSO control; higher = more viable (less active)
- ASSAY CONDITIONS: 72 h; 10 µM
Decide using XTT viability alone. Strictly below 90%: YES. Equal to or above 90%: NO.

Exercise: In the record for "CC[P](CC)(CC)=[Au][S][C@H]1O[C@@H](COC(C)=O)[C@H](OC(C)=O)[C@@H](OC(C)=O)[C@@H]1OC(C)=O" , is XTT viability less than 90%?
Solution: NO

Exercise: In the record for "COc1cc2ncnc(NC3CCN(Cc4ccccc4)CC3)c2cc1OC" , is XTT viability less than 90%?
Solution: YES

Exercise: In the record for "Cc1ccc(S(=O)(=O)n2cc(-c3ccnc(N)c3)c3cc(Br)cnc32)cc1" , is XTT viability less than 90%?
Solution: YES

Exercise: In the record for "O=C(NCc1cc(Cl)cc(Cl)c1)c1c(C(F)(F)F)nc2ccccn12" , is XTT viability less than 90%?
Solution: NO

Exercise: In the record for "COc1ccc(Cn2cnc3c(-c4ccco4)nc(Cl)nc32)cc1" , is XTT viability less than 90%?
Solution: NO

Exercise: In the record for "Cc1nn2c(O)c3c(nc2c1-c1ccc(F)cc1)CCCC3" , is XTT viability less than 90%?
Solution: NO

Exercise: In the record for "NCCN(C(=O)c1ccc(Cl)cc1Cl)c1ccc(OCc2ccc(Cl)cc2)cc1" , is XTT viability less than 90%?
Solution: YES

Exercise: In the record for "Cc1ccc(S(=O)(=O)N2CCN(C(=O)c3cc(-c4ccccc4)[nH]n3)CC2)cc1" , is XTT viability less than 90%?
Solution: YES

---

- Tested on: Schistosoma mansoni schistosomula (Liberian)
- TEST DESCRIPTION: drug effect (1 - score/DMSO control score) (fraction); higher = more antischistosomal effect, active = 0.5 or more; extreme values may be limits of the assay
- ASSAY CONDITIONS: 72 h; 10 µM
Label rule met when drug effect >= 0.5; otherwise rule not met.

Exercise: Is drug effect at least 0.5? Consider CCNC(=O)C(C)Nc1nc(-c2cccnc2)nc2sc(C)c(C)c12 (centres undefined)
Solution: rule not met

Exercise: Is drug effect at least 0.5? Consider "CC(C)N=c1cc2n(-c3ccc(Cl)cc3)c3ccccc3nc-2cc1Nc1ccc(Cl)cc1"
Solution: rule met

Exercise: Is drug effect at least 0.5? Consider "CC(C)(C)n1nc(Cc2ccc(F)c(Cl)c2)c2c(N)ncnc21"
Solution: rule not met

Exercise: Is drug effect at least 0.5? Consider CC1CS(=O)(=O)CCN1/N=C/c1ccc([N+](=O)[O-])o1 (centres undefined)
Solution: rule met

Exercise: Is drug effect at least 0.5? Consider "CCCNC(=O)N1CCC2(CC1)CC(=O)c1cc(C)ccc1O2"
Solution: rule not met

Exercise: Is drug effect at least 0.5? Consider "CCOC(=O)c1cc(-c2csc(Nc3c(C)cc(C)cc3C)n2)on1"
Solution: rule not met

Exercise: Is drug effect at least 0.5? Consider "Cc1ccc(-c2cc(C(=O)Nc3cccnc3)c3cc(Br)ccc3n2)cc1"
Solution: rule met

---

- System: Schistosoma mansoni schistosomula (Liberian)
- TEST DESCRIPTION: drug effect (1 - score/DMSO control score) (fraction); higher = more antischistosomal effect, active = 0.5 or more; extreme values may be limits of the assay
- ASSAY CONDITIONS: 72 h; 10 µM
Please state which outcome applies, choosing from 1.0 for active, 0.0 for inactive

Exercise: Field: outcome | Entry: Cc1noc(C)c1C(=O)N1CCCC(c2[nH]c3c(C)cccc3c2-c2ccncc2)C1 (centres undefined)
Solution: 1.0

Exercise: Field: outcome | Entry: COCC(C)NC(=O)CSc1ncnc2sc(-c3ccccc3)cc12 (centres undefined)
Solution: 0.0

Exercise: Field: outcome | Entry: "NC(=O)c1cc(-c2ccsc2)ccc1OCCOc1ccccc1"
Solution: 0.0

Exercise: Field: outcome | Entry: "Nc1ncc(Br)cc1-c1nc2cc(Cl)cnc2[nH]1"
Solution: 0.0

Exercise: Field: outcome | Entry: "Clc1cccc(CO[C@H]2CCc3ccccc3[C@@H]2n2ccnn2)c1"
Solution: 0.0

Exercise: Field: outcome | Entry: "COC(=O)c1ccc(F)cc1NS(=O)(=O)c1cccc(-c2cnn(Cc3ccccc3)c2)c1"
Solution: 0.0

Exercise: Field: outcome | Entry: "O=C(NCCc1ccccc1)c1cc(-c2cccnc2)cnc1NCC1CC1"
Solution: 1.0

Exercise: Field: outcome | Entry: CN1CCCC1CCO[C@](C)(c1ccccc1)c1ccc(Cl)cc1 (some centres undefined)
Solution: 1.0

Exercise: Field: outcome | Entry: "O=[N+]([O-])c1cn2c(n1)OC[C@@H](OCc1ccc(OC(F)(F)F)cc1)C2"
Solution: 0.0

---

- Tested on: Schistosoma mansoni schistosomula (Liberian)
- TEST DESCRIPTION: drug effect (1 - score/DMSO control score) (fraction); higher = more antischistosomal effect, active = 0.5 or more; extreme values may be limits of the assay
- ASSAY CONDITIONS: 48 h; 10 µM
Please state which outcome applies, choosing from active, inactive

Exercise: Field: outcome | Entry: "O=C(NCCc1ccn(-c2ccccc2)n1)C1CCCCC1"
Solution: inactive

Exercise: Field: outcome | Entry: "CN1CCN(c2nccc3nc(-c4ccc(F)c(F)c4)[nH]c23)CC1"
Solution: inactive

Exercise: Field: outcome | Entry: "COc1cccc(-n2nnnc2S(=O)(=O)Cc2ccccc2)c1"
Solution: active

Exercise: Field: outcome | Entry: "CNC(=O)c1cc(S(=O)(=O)N2CCN(c3ccccn3)CC2)cs1"
Solution: inactive

Exercise: Field: outcome | Entry: "O=C(C1CCN(c2nnnn2-c2ccccc2)CC1)N1CCc2ccccc2C1"
Solution: inactive

Exercise: Field: outcome | Entry: CC(C(=O)N1CCCC1)N1CCN(S(=O)(=O)c2ccc(C(C)(C)C)cc2)CC1 (centres undefined)
Solution: inactive

Exercise: Field: outcome | Entry: "COc1ccccc1CNC(=O)c1cc(C2CC2)nc2c1cnn2C(C)C"
Solution: inactive

Exercise: Field: outcome | Entry: CNCCC(Oc1ccc(C(F)(F)F)cc1)c1ccccc1 (centres undefined)
Solution: inactive

Exercise: Field: outcome | Entry: "c1ccc(-c2nc(NC3CCCCC3)cc(C3CC3)n2)nc1"
Solution: inactive

Exercise: Field: outcome | Entry: "Clc1ccc(-n2cc(COc3ccnc4ccccc34)nn2)cc1"
Solution: inactive

Exercise: Field: outcome | Entry: "COc1ccc(C2=NN(C3CCCCCC3)C(=O)C2(C)C)cc1OCc1ccccn1"
Solution: inactive

Exercise: Field: outcome | Entry: "Cc1cc(C)n(-c2ccc(NC(=O)C3CCN(Cc4cnc(C)s4)CC3)cc2)n1"
Solution: inactive

Exercise: Field: outcome | Entry: "O=C(NC1CC1)c1ccc(N2CCOc3ccc(Cl)cc32)s1"
Solution: inactive

Exercise: Field: outcome | Entry: "CC(=O)NC[C@@H]1CN(c2ccc(N3CCOCC3)c(F)c2)C(=O)O1"
Solution: inactive

Exercise: Field: outcome | Entry: Cc1nc(-c2ccccn2)nc(N2CCC(Cc3ccccc3)C2)c1Cl (centres undefined)
Solution: inactive

Exercise: Field: outcome | Entry: CCc1ccc(C(NCc2nc(N)nc(N(C)C)n2)C(C)C)cc1 (centres undefined)
Solution: inactive

Exercise: Field: outcome | Entry: CCOc1ccccc1NC(C)C(=O)Nc1cc(C(F)(F)F)ccc1N1CCOCC1 (centres undefined)
Solution: inactive

Exercise: Field: outcome | Entry: "O=C1COCc2ccc(Br)cc2N1Cc1ccc(C(F)(F)F)cc1"
Solution: inactive

Exercise: Field: outcome | Entry: NCCCC(N)(C(=O)O)C(F)F (centres undefined)
Solution: inactive

Exercise: Field: outcome | Entry: "OCCc1ccc(Nc2nccc(-c3nnc4ccccn34)n2)cc1"
Solution: active

Exercise: Field: outcome | Entry: "NCC(=O)N1CCn2c(nc(-c3ccccc3)c2Nc2ccc3c(c2)OCO3)C1"
Solution: inactive

Exercise: Field: outcome | Entry: "CCOc1ccc2cc(-c3nn(CC4CCN(C)CC4)c4ncnc(N)c34)ccc2c1"
Solution: inactive

Exercise: Field: outcome | Entry: NCC(c1cccs1)S(=O)(=O)c1ccccc1 (centres undefined)
Solution: inactive

Exercise: Field: outcome | Entry: "CCc1ccc(S(=O)(=O)Nc2cc(CN3CCN(CCC(C)C)CC3)ccc2C)cc1"
Solution: inactive

Exercise: Field: outcome | Entry: CCC(Sc1nc2ccccc2o1)C(=O)Nc1nccs1 (centres undefined)
Solution: active

Exercise: Field: outcome | Entry: "FC(F)(F)c1nnc2ccc(Cl)nn12"
Solution: inactive

Exercise: Field: outcome | Entry: "Cc1ccc2[nH]c3c(NCCN(C)C)ncnc3c2c1"
Solution: inactive

Exercise: Field: outcome | Entry: "O=C(Nc1ccnc(-c2cccnc2)n1)c1cc(C(F)(F)F)cc(C(F)(F)F)c1"
Solution: inactive

Exercise: Field: outcome | Entry: "COc1cccc(OC)c1C(=O)Nc1ccc(Cl)c(-c2nc3ccccc3s2)c1"
Solution: active
